As shown below, each of these compounds has a reported inhibition value.
biological target: Fatty acid-binding protein, adipocyte (Homo sapiens, UniProt P15090); test: Displacement of 1,8-ANS from FABP4 (unknown origin) at 25 uM incubated for 3 mins by fluorescence based analysis relative to control
Sequence (P15090 2-132 limits assumed): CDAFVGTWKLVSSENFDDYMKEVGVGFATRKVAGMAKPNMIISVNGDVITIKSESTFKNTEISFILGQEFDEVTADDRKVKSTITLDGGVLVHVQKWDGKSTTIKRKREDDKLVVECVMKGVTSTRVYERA
I only need the number, in %, no unit after it.

The examples below pair each entry with its known result.
Query: Would you kindly share the measured inhibition for O=C(O)c1cc(NS(=O)(=O)c2ccc(-c3ccccc3OC(F)(F)F)c3ccccc23)ccc1F ?
Reply: 74

Query: Would you kindly share the measured inhibition for COc1c(-c2ccc(F)cc2)cc(S(=O)(=O)Nc2ccc(F)c(CC(=O)O)c2)c2ccccc12 ?
Reply: 95

Query: Would you kindly share the measured inhibition for O=C(O)c1cc(NS(=O)(=O)c2ccc(-c3ccc(C(F)(F)F)cc3)c3ccccc23)ccc1F ?
Reply: 40

Query: Would you kindly share the measured inhibition for COc1c(-c2ccc(F)cc2C)cc(S(=O)(=O)Nc2ccc(F)c(C(=O)O)c2)c2ccccc12 ?
Reply: 95

Query: Would you kindly share the measured inhibition for O=C(O)c1cc(NS(=O)(=O)c2ccc(-c3ccc(O)cc3)c3ccccc23)ccc1F ?
Reply: 73

Continuing:
Query: Would you kindly share the measured inhibition for COc1c(-c2cccc(Cl)c2F)cc(S(=O)(=O)Nc2ccc(F)c(CC(=O)O)c2)c2ccccc12 ?
Reply: 84

Query: Would you kindly share the measured inhibition for COc1c(-c2ccccc2C(C)C)cc(S(=O)(=O)Nc2ccc(F)c(CC(=O)O)c2)c2ccccc12 ?
Reply: 50

Query: Would you kindly share the measured inhibition for O=C(O)c1cc(NS(=O)(=O)c2ccc(-c3ccccc3)c3ccccc23)ccc1F ?
Reply: 82

Query: Would you kindly share the measured inhibition for O=C(O)c1cc(NS(=O)(=O)c2ccc(-c3ccc(F)cc3)c3ccccc23)ccc1F ?
Reply: 80

Query: Would you kindly share the measured inhibition for Cc1cc(F)ccc1-c1ccc(S(=O)(=O)Nc2ccc(F)c(C(=O)O)c2)c2ccccc12 ?
Reply: 85

Query: Would you kindly share the measured inhibition for COc1c(-c2ccccc2Cl)cc(S(=O)(=O)Nc2ccc(F)c(CC(=O)O)c2)c2ccccc12 ?
Reply: 77

Query: Would you kindly share the measured inhibition for COc1c(-c2ccc(F)c(Cl)c2)cc(S(=O)(=O)Nc2ccc(F)c(CC(=O)O)c2)c2ccccc12 ?
Reply: 88

Query: Would you kindly share the measured inhibition for CCc1ccccc1-c1cc(S(=O)(=O)Nc2ccc(F)c(CC(=O)O)c2)c2ccccc2c1OC ?
Reply: 63

Query: Would you kindly share the measured inhibition for COc1c(-c2cc(Cl)ccc2Cl)cc(S(=O)(=O)Nc2ccc(F)c(CC(=O)O)c2)c2ccccc12 ?
Reply: 52

Query: Would you kindly share the measured inhibition for Cc1c(Cl)cccc1OCc1[nH]c2nc(-c3ccccc3)nn2c(=O)c1C ?
Reply: 97

Query: Would you kindly share the measured inhibition for COc1c(-c2ccccc2F)cc(S(=O)(=O)Nc2ccc(F)c(CC(=O)O)c2)c2ccccc12 ?
Reply: 87

Query: Would you kindly share the measured inhibition for O=C(O)c1cc(NS(=O)(=O)c2ccc(-c3ccncc3)c3ccccc23)ccc1F ?
Reply: 52

Query: Would you kindly share the measured inhibition for Cc1noc(C)c1-c1ccc(S(=O)(=O)Nc2ccc(F)c(C(=O)O)c2)c2ccccc12 ?
Reply: 61

----------
molecular target: Fatty acid-binding protein, heart (Homo sapiens)
Sequence (P05413 whole entry): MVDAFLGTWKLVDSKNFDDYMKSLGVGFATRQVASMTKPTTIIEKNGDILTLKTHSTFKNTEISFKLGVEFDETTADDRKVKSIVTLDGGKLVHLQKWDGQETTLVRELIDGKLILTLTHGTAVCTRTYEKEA
As shown below, each of these molecules has a reported IC50 value.
I only need the number, in µM, no unit after it.

Query: Notebook: pull reported IC50 for Fatty acid-binding protein, heart (Homo sapiens), entry Cc1c(Cl)cccc1OCc1[nH]c2nc(-c3ccccc3)nn2c(=O)c1C
Reply: 1.95

Query: Notebook: pull reported IC50 for Fatty acid-binding protein, heart (Homo sapiens), entry O=C(O)c1cc(NS(=O)(=O)c2ccc(-c3ccc(F)c(Cl)c3)c3ccccc23)ccc1F
Reply: 103

Query: Notebook: pull reported IC50 for Fatty acid-binding protein, heart (Homo sapiens), entry O=C(O)c1cc(NS(=O)(=O)c2ccc(-c3ccc(F)cc3Cl)c3ccccc23)ccc1F
Reply: 104

Now for a further molecule.
Query: Notebook: pull reported IC50 for Fatty acid-binding protein, heart (Homo sapiens), entry COc1c(-c2ccc(F)cc2C)cc(S(=O)(=O)Nc2ccc(F)c(CC(=O)O)c2)c2ccccc12
Reply: 84.4

----------
As shown below, each of these molecules has a reported half-life value.
assay: Half life in ICR mouse at 1 mg/kg, iv measured for 24 hrs by LC-MS/MS analysis; assay type: ADME, organism-based; conditions: in vivo
I only need the number, in h, no unit after it.

Query: Would you kindly share the measured half-life for O=C(O)c1cc(NS(=O)(=O)c2ccc(-c3ccc(F)cc3Cl)c3ccccc23)ccc1F ?
Reply: 2.88

Now for a further molecule.
Query: Would you kindly share the measured half-life for COc1c(-c2ccc(F)cc2C)cc(S(=O)(=O)Nc2ccc(F)c(CC(=O)O)c2)c2ccccc12 ?
Reply: 1.78

----------
assay: Cmax in ICR mouse at 3 mg/kg, po and 1 mg/kg, iv measured for 24 hrs by LC-MS/MS analysis; type: ADME, organism-based; design: time 24 hrs, dose 3 mg/kg; conditions: in vivo
As shown below, each of these compounds has a reported Cmax value.
I only need the number, in ng/mL, no unit after it.

Query: Would you kindly share the measured Cmax for O=C(O)c1cc(NS(=O)(=O)c2ccc(-c3ccc(F)cc3Cl)c3ccccc23)ccc1F ?
Reply: 782

Now for a further compound.
Query: Would you kindly share the measured Cmax for COc1c(-c2ccc(F)cc2C)cc(S(=O)(=O)Nc2ccc(F)c(CC(=O)O)c2)c2ccccc12 ?
Reply: 478

----------
assay: Metabolic stability in mouse liver microsomes assessed as half life at 0.1 uM preincubated for 10 mins followed by NADPH addition and measured for 60 mins by LC-MS/MS analysis; type: ADME, Microsome; details: time 70 min
reported-property: half-life at 0.1 µM (min)
I only need the number, in min, no unit after it.

Query: Would you kindly share the measured half-life at 0.1 µM for Cc1cc(F)ccc1-c1ccc(S(=O)(=O)Nc2ccc(F)c(C(=O)O)c2)c2ccccc12 ?
Reply: 88.4

Query: Would you kindly share the measured half-life at 0.1 µM for COc1c(-c2ccccc2Cl)cc(S(=O)(=O)Nc2ccc(F)c(CC(=O)O)c2)c2ccccc12 ?
Reply: 43.1

Query: Would you kindly share the measured half-life at 0.1 µM for COc1c(-c2ccc(F)cc2C)cc(S(=O)(=O)Nc2ccc(F)c(C(=O)O)c2)c2ccccc12 ?
Reply: 102

Query: Would you kindly share the measured half-life at 0.1 µM for O=C(O)c1cc(NS(=O)(=O)c2ccc(OCCC3CCCCC3)c3ccccc23)ccc1F ?
Reply: 23.5

Query: Would you kindly share the measured half-life at 0.1 µM for COc1c(-c2ccc(F)cc2C)cc(S(=O)(=O)Nc2ccc(F)c(CC(=O)O)c2)c2ccccc12 ?
Reply: 88.3

Continuing:
Query: Would you kindly share the measured half-life at 0.1 µM for COc1c(-c2ccccc2C(C)C)cc(S(=O)(=O)Nc2ccc(F)c(CC(=O)O)c2)c2ccccc12 ?
Reply: 15.1

Query: Would you kindly share the measured half-life at 0.1 µM for O=C(O)c1cc(NS(=O)(=O)c2ccc(-c3ccc(F)cc3Cl)c3ccccc23)ccc1F ?
Reply: 91

----------
target: Fatty acid-binding protein 5 (Homo sapiens, UniProt Q01469)
Sequence (Q01469 whole entry): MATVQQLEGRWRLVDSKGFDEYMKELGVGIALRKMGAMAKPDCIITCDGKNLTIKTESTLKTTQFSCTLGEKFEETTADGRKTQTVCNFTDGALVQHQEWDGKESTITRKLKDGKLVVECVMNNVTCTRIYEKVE
reported-property: pIC50
As a rule, pIC50 stands for the negative log10 of the concentration, concentration in M.

The examples below pair each entry with its known result.
Query: Notebook: pull reported pIC50 for Fatty acid-binding protein 5 (Homo sapiens, UniProt Q01469), entry CCc1ccccc1-c1cc(S(=O)(=O)Nc2ccc(F)c(CC(=O)O)c2)c2ccccc2c1OC
Reply: 5.49

Query: Notebook: pull reported pIC50 for Fatty acid-binding protein 5 (Homo sapiens, UniProt Q01469), entry COc1c(-c2ccc(F)cc2C)cc(S(=O)(=O)Nc2ccc(F)c(C(=O)O)c2)c2ccccc12
Reply: 5.05

Query: Notebook: pull reported pIC50 for Fatty acid-binding protein 5 (Homo sapiens, UniProt Q01469), entry COc1c(-c2ccccc2Cl)cc(S(=O)(=O)Nc2ccc(F)c(CC(=O)O)c2)c2ccccc12
Reply: 5.12

Now for a further compound.
Query: Notebook: pull reported pIC50 for Fatty acid-binding protein 5 (Homo sapiens, UniProt Q01469), entry CC(C)c1ccccc1-c1ccc(S(=O)(=O)Nc2ccc(F)c(C(=O)O)c2)c2ccccc12
Reply: 4.77

----------
assay: Oral bioavailability in ICR mouse at 3 mg/kg measured for 24 hrs by LC-MS/MS analysis; type: ADME, organism-based; conditions: in vivo
reported-property: bioavailability
Show the value, then the unit it is measured in.

Query: Would you kindly share the measured bioavailability for O=C(O)c1cc(NS(=O)(=O)c2ccc(-c3ccc(F)cc3Cl)c3ccccc23)ccc1F ?
Reply: 18.4%

Now for a further compound.
Query: Would you kindly share the measured bioavailability for COc1c(-c2ccc(F)cc2C)cc(S(=O)(=O)Nc2ccc(F)c(CC(=O)O)c2)c2ccccc12 ?
Reply: 29.9%

----------
For Fatty acid-binding protein, adipocyte (Homo sapiens, UniProt P15090), measured pIC50 is reported for the entries below.
As a rule, pIC50 stands for the negative log10 of the concentration, concentration in M.

Query: Would you kindly share the measured pIC50 for Cc1cc(F)ccc1-c1ccc(S(=O)(=O)Nc2ccc(F)c(C(=O)O)c2)c2ccccc12 ?
Reply: 5.30

Query: Would you kindly share the measured pIC50 for O=C(O)c1cc(NS(=O)(=O)c2ccc(-c3ccc(F)cc3Cl)c3ccccc23)ccc1F ?
Reply: 5.33

Query: Would you kindly share the measured pIC50 for CCc1ccccc1-c1cc(S(=O)(=O)Nc2ccc(F)c(CC(=O)O)c2)c2ccccc2c1OC ?
Reply: 4.85

Query: Would you kindly share the measured pIC50 for COc1c(-c2ccccc2C)cc(S(=O)(=O)Nc2ccc(F)c(CC(=O)O)c2)c2ccccc12 ?
Reply: 5.29

Query: Would you kindly share the measured pIC50 for COc1c(-c2cccc(Cl)c2F)cc(S(=O)(=O)Nc2ccc(F)c(CC(=O)O)c2)c2ccccc12 ?
Reply: 5.19

Query: Would you kindly share the measured pIC50 for COc1c(-c2ccc(F)cc2C)cc(S(=O)(=O)Nc2ccc(F)c(CC(=O)O)c2)c2ccccc12 ?
Reply: 5.42

Query: Would you kindly share the measured pIC50 for COc1c(-c2ccccc2F)cc(S(=O)(=O)Nc2ccc(F)c(CC(=O)O)c2)c2ccccc12 ?
Reply: 5.28

Query: Would you kindly share the measured pIC50 for O=C(O)c1cc(NS(=O)(=O)c2ccc(-c3ccc(F)cc3)c3ccccc23)ccc1F ?
Reply: 5.11

Query: Would you kindly share the measured pIC50 for CC(C)c1ccccc1-c1ccc(S(=O)(=O)Nc2ccc(F)c(C(=O)O)c2)c2ccccc12 ?
Reply: 4.92

Query: Would you kindly share the measured pIC50 for COc1c(-c2ccc(F)cc2)cc(S(=O)(=O)Nc2ccc(F)c(CC(=O)O)c2)c2ccccc12 ?
Reply: 5.33

Continuing:
Query: Would you kindly share the measured pIC50 for O=C(O)c1cc(NS(=O)(=O)c2ccc(-c3ccccc3OC(F)(F)F)c3ccccc23)ccc1F ?
Reply: 4.90

Query: Would you kindly share the measured pIC50 for COc1c(-c2ccc(F)cc2C)cc(S(=O)(=O)Nc2ccc(F)c(C(=O)O)c2)c2ccccc12 ?
Reply: 5.58
